- METHOD_DESCRIPTION: RP, Thermo Scientific Hypersil GOLD, 1.9 µm, 40 °C, 0.4 mL/min; A: water + 0.1% formic acid, pH 3; B: acetonitrile + 0.1% formic acid, pH 3; gradient (min/%B) 0/0 1/0 11/100 13/100 14/0 16/0
- STATED_CONDITIONS: stereoisomer not certain
Rule: LC retention time below 2 min gives Criterion met. Equal to or above 2 min gives Criterion not met.

Nc1ccc(C(=O)NCC(=O)O)cc1; Criterion met
NC(=O)Cc1c[nH]c2ccccc12 [INDOLE-3-ACETAMIDE]; Criterion not met
NCC(=O)CCC(=O)O [5-AMINOLEVULINATE]; Criterion met
O=c1cc[nH]c(=O)[nH]1; Criterion met
O=C(O)CCc1ccc(O)cc1O [3-(2-4-Dihydroxyphenyl)propionic acid]; Criterion not met
CC1OC(OCC2OC(Oc3c(-c4ccc(O)c(O)c4)oc4cc(O)cc(O)c4c3=O)C(O)C(O)C2O)C(O)C(O)C1O (stereo not drawn) [rutin hydrate]; Criterion not met
CC(C)(N)C(=O)O [2-AMINOISOBUTYRATE]; Criterion met
C=C(C)C1CC=C(CO)CC1 [(S)-(-)-Perillyl alcohol]; Criterion not met
O=c1ccn(C2CC(O)C(CO)O2)c(=O)[nH]1 (stereo not drawn); Criterion met
CC(C)(CC(=O)O)C(=O)O; Criterion not met
NC(CO)Cc1cnc[nH]1 (stereo not drawn); Criterion met
OCC1OC(OCC2OC(O)C(O)C(O)C2O)C(O)C(O)C1O (stereo not drawn); Criterion met
NC1CCSC1=O (stereo not drawn); Criterion met
CC1=C(/C=C/C(C)=C/C=C/C(C)=C/C=C/C=C(C)/C=C/C=C(C)/C=C/C2=C(C)CCCC2(C)C)C(C)(C)CCC1; Criterion not met
CS(=N)(=O)CCC(N)C(=O)O (stereo not drawn); Criterion met
Nc1ncnc2c1ncn2C1OC(CSCCC([NH3+])C(=O)[O-])C(O)C1O (stereo not drawn); Criterion met
NC(=O)[C@@H](N)Cc1c[nH]c2ccccc12 [L-TRYPTOPHANAMIDE]; Criterion not met
Oc1cc(O)c2c(c1)OC(c1ccc(O)c(O)c1)C(O)C2 (single isomer, unassigned; (+)) [(+)-Catechin hydrate]; Criterion not met
Cc1ncc(CO)c(CO)c1O; Criterion met
Nc1nc2c(ncn2C2OC(CO)C(O)C2O)c(=O)[nH]1 (stereo not drawn); Criterion met
CC(C)C(C(=O)O)C(O)C(=O)O (stereo not drawn); Criterion not met
O=C(O)c1ccc(CO)o1 [5-hydroxymethyl-2-furancarboxylic acid]; Criterion not met
C=C(C)C1CCC2(C(=O)O)CCC3(C)C(CCC4C5(C)CCC(O)C(C)(C)C5CCC43C)C12 (stereo not drawn); Criterion not met
C=C1CCC(O)CC1=CC=C1CCCC2(C)C1CCC2C(C)C=CC(C)C(C)C (stereo not drawn) [VITAMIN D2]; Criterion not met
C#CC1(O)CCC2C3CCc4cc(O)ccc4C3CCC21C (racemic); Criterion not met
O=C(O)Cc1ccc(O)c(O)c1 [3-4-DIHYDROXYPHENYLACETATE]; Criterion not met
CC(C)CC(=O)NCC(=O)O; Criterion not met
O=C(O)CCCCCCCCCCCO [OMEGA-HYDROXYDODECANOATE]; Criterion not met
O=C(O)c1c(O)cccc1O [2-6-Dihydroxybenzoic acid]; Criterion not met
O=C(O)CCCCC1CCSS1 (racemic); Criterion not met
Cc1ncc(CO)c(C=O)c1O; Criterion met
CN1C(=O)CCC1c1cccnc1 (stereo not drawn); Criterion met
NCC(O)c1ccc(O)cc1 (stereo not drawn); Criterion met

Hey, just so you know, these numbers are from the RepoRT retention time repository.
